Here's what we have: pIC50 numbers for Acetylcholinesterase (Electrophorus electricus).
Numbers only, as −log10 of the molar value.

Examples with their reported pIC50 follow.
{"Compound Structure String": "COc1ccc(Nc2nc(Cl)nc(Nc3cccc(C(F)(F)F)c3)n2)cc1", "pIC50": 6.23}
{"Compound Structure String": "Cc1ccc(Nc2nc(Cl)nc(Nc3ccc(F)c(Cl)c3)n2)cc1", "pIC50": 6.04}
{"Compound Structure String": "Cc1cc(N2CCN(c3nc(Nc4ccc(F)cc4)nc(Nc4cccc(C(F)(F)F)c4)n3)CC2)n2ncnc2n1", "pIC50": 6.14}
{"Compound Structure String": "Cc1cc(N2CCN(c3nc(Cl)nc(Nc4cccc(C(F)(F)F)c4)n3)CC2)n2ncnc2n1", "pIC50": 7.19}
{"Compound Structure String": "Fc1ccc(Nc2nc(Cl)nc(Nc3cccc(C(F)(F)F)c3)n2)c(F)c1", "pIC50": 6.30}

Items follow; give pIC50 for each.
1. Fc1ccc(Nc2nc(Cl)nc(Nc3cccc(C(F)(F)F)c3)n2)cc1Cl
2. Cc1ccc(Nc2nc(Cl)nc(Nc3cccc(C(F)(F)F)c3)n2)cc1
3. Cc1cc(N2CCN(c3nc(Cl)nc(Nc4ccccc4F)n3)CC2)n2ncnc2n1

Response:
6.36
6.17
6.54

* * *

Target Or Test System: Amyloid-beta precursor protein (Homo sapiens)
Sequence (P05067 whole entry, the tested form may be a part): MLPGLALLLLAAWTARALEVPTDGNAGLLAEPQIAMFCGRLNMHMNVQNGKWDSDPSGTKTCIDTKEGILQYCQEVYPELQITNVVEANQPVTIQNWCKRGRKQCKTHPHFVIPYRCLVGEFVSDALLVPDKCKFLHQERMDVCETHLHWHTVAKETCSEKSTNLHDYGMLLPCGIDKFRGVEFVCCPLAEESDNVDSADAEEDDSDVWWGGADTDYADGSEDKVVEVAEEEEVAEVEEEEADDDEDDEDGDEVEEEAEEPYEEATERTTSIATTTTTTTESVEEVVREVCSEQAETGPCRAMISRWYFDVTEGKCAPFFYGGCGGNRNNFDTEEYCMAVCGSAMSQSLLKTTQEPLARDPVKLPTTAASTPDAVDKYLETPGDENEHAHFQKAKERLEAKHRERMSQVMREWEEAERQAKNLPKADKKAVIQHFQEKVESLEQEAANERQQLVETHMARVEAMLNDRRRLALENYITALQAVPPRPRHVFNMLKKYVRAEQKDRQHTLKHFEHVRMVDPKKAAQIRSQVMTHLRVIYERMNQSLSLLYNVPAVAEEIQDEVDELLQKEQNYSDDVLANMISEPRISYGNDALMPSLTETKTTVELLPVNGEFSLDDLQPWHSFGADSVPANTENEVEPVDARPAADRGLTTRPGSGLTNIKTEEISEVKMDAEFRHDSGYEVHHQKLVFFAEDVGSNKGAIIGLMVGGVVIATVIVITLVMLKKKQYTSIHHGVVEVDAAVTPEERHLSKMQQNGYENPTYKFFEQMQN
Assay Name: Inhibition of HFIP-pretreated amyloid beta (1 to 42 residues) (unknown origin) self aggregation at 25 uM after 24 hrs by ThT-based fluorometric method
Where inhibition equals or exceeds 60%, the correct label is rule met; where it does not, the label is rule not met.

Please review the following examples before continuing.
{"Compound Structure String": "Fc1ccc(Nc2nc(Cl)nc(Nc3cccc(C(F)(F)F)c3)n2)c(F)c1", "Target Or Test System": "Amyloid-beta precursor protein (Homo sapiens)", "Class Name": "rule met"}
{"Compound Structure String": "Cc1cc(N2CCN(c3nc(Nc4cccc(C(F)(F)F)c4)nc(NC4CC4)n3)CC2)n2ncnc2n1", "Target Or Test System": "Amyloid-beta precursor protein (Homo sapiens)", "Class Name": "rule not met"}
{"Compound Structure String": "COc1ccc(Nc2nc(Cl)nc(Nc3cccc(C(F)(F)F)c3)n2)cc1", "Target Or Test System": "Amyloid-beta precursor protein (Homo sapiens)", "Class Name": "rule met"}
{"Compound Structure String": "Cc1cc(N2CCN(c3nc(Cl)nc(Nc4ccccc4F)n3)CC2)n2ncnc2n1", "Target Or Test System": "Amyloid-beta precursor protein (Homo sapiens)", "Class Name": "rule met"}
{"Compound Structure String": "Cc1ccc(Nc2nc(Cl)nc(Nc3ccc(F)c(Cl)c3)n2)cc1", "Target Or Test System": "Amyloid-beta precursor protein (Homo sapiens)", "Class Name": "rule met"}
{"Compound Structure String": "Cc1ccc(Nc2nc(Nc3ccc(F)c(Cl)c3)nc(N3CCN(c4cc(C)nc5ncnn45)CC3)n2)cc1", "Target Or Test System": "Amyloid-beta precursor protein (Homo sapiens)", "Class Name": "rule not met"}
{"Compound Structure String": "COc1ccc(Nc2nc(Cl)nc(N3CCN(c4cc(C)nc5ncnn45)CC3)n2)cc1", "Target Or Test System": "Amyloid-beta precursor protein (Homo sapiens)", "Class Name": "rule met"}
{"Compound Structure String": "Cc1cc(N2CCN(c3nc(Cl)nc(Nc4ccc(F)cc4)n3)CC2)n2ncnc2n1", "Target Or Test System": "Amyloid-beta precursor protein (Homo sapiens)", "Class Name": "rule met"}
{"Compound Structure String": "Cc1ccc(Nc2nc(Nc3cccc(C(F)(F)F)c3)nc(N3CCN(c4cc(C)nc5ncnn45)CC3)n2)cc1", "Target Or Test System": "Amyloid-beta precursor protein (Homo sapiens)", "Class Name": "rule not met"}
{"Compound Structure String": "Cc1ccc(Nc2nc(Cl)nc(Nc3cccc(C(F)(F)F)c3)n2)cc1", "Target Or Test System": "Amyloid-beta precursor protein (Homo sapiens)", "Class Name": "rule met"}

Request: Does the reported inhibition for Fc1ccc(Nc2nc(Cl)nc(Nc3cccc(C(F)(F)F)c3)n2)cc1 fall at or above the 60% mark?
Response: rule met

Request: Entry Cc1cc(N2CCN(c3nc(Nc4ccc(F)cc4)nc(Nc4cccc(C(F)(F)F)c4)n3)CC2)n2ncnc2n1 : is its inhibition no less than 60%?
Response: rule not met

Request: Item Cc1cc(N2CCN(c3nc(Cl)nc(Nc4cccc(C(F)(F)F)c4)n3)CC2)n2ncnc2n1 with inhibition of 60% or above?
Response: rule met

Request: Quick check, inhibition >= 60%? Fc1ccc(Nc2nc(Cl)nc(Nc3cccc(C(F)(F)F)c3)n2)cc1Cl
Response: rule not met
